Each entry below carries its recorded RUmax.
target: Major prion protein (Mus musculus) (UniProt P04925); assay: Binding affinity at mouse PrPC at 40 uM by SPR assay
Sequence (P04925 whole entry): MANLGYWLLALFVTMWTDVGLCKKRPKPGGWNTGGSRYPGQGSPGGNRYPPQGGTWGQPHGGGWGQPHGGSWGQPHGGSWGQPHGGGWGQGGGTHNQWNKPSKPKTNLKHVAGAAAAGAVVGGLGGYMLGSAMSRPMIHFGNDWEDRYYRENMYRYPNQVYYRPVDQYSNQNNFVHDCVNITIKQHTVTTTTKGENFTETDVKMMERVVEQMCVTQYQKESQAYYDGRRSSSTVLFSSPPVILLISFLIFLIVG
measured-quantity: RUmax (%)

| query-smiles | unit-of-measurement | numeric-value |
| --- | --- | --- |
| O=C(Nc1oc(-c2ccccc2)nc1-c1ccccc1)c1cc2ccccc2s1 | % | 59.6 |
| CC(C)(C)OC(=O)Nc1oc(-c2ccccc2)nc1-c1ccccc1 | % | 10.6 |
| O=C(Nc1oc(-c2ccccc2)nc1-c1ccccc1)c1cc2ccccc2o1 | % | 58 |
| O=C(Nc1sc(-c2ccccc2)nc1-c1ccccc1)c1ccno1 | % | 0 |
| O=C(Nc1oc(-c2ccccc2)nc1-c1ccccc1)c1ccc(F)cc1 | % | 0 |
| O=C(Nc1sc(-c2ccccc2)nc1-c1ccccc1)c1cc2ccccc2s1 | % | 0 |
| O=C(Nc1sc(-c2ccccc2)nc1-c1ccccc1)c1ccccc1C(F)(F)F | % | 0 |
| O=C(Nc1sc(-c2ccccc2)nc1-c1ccccc1)c1ccc([N+](=O)[O-])o1 | % | 0 |
| Cc1ccc(C(=O)Nc2sc(-c3ccccc3)nc2-c2ccccc2)s1 | % | 0 |
| O=C(Nc1sc(-c2ccccc2)nc1-c1ccccc1)c1nc2ccccc2s1 | % | 0 |
